Where do these numbers come from? They come from patent US20180104220A1.

# measurement-target: thromboxane synthetase (Rattus norvegicus)
# Construct: Whole blood was collected from the heart of male SD rat after isoflurane anesthesia; from tissue; host or cells: whole blood of male Sprague-Dawley rats
# Sequence (P49430 whole entry): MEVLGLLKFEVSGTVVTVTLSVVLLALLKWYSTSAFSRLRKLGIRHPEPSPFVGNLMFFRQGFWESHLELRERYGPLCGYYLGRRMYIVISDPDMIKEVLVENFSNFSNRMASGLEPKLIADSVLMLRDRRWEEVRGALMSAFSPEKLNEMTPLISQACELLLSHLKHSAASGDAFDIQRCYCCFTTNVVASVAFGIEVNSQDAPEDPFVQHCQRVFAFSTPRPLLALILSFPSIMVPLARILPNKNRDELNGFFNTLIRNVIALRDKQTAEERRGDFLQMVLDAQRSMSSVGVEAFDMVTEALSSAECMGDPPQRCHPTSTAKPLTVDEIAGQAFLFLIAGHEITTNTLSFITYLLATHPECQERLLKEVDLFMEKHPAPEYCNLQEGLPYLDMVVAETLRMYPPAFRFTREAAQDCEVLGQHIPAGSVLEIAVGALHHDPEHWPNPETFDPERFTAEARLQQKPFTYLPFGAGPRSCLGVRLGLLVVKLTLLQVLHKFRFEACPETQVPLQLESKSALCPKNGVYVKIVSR
# assay-details: Release of TXB2 in the in-vitro coagulation process of rats' whole blood
# Assay type: cell-based
# recorded-conditions: male SD rat whole blood, 37° C. 30 mins, TXB2 by LC-MS/MS; class symbols; read-out: IC50 for the release level of TXB2 in the in-vitro coagulation of rats' whole blood (thromboxane synthetase)
pIC50: −log10 of the molar value.
Catalogue of pIC50 values

Returns the measured pIC50 for the input compound. Input: C[C@@H](c1ccc(-c2cc(O)no2)cc1)n1ccnc1 [Compound 22]
7.00 to 7.30

Returns the measured pIC50 for the input compound. Input: Oc1cc([C@H]2CC[C@H](Cn3ccnc3)CC2)on1 [Compound 34]
7.30 to 7.60

Returns the measured pIC50 for the input compound. Input: Oc1nccc(C2=CCC(Cn3ccnc3)CC2)c1F (centres unmarked) [Compound 36]
6.60 to 7.00

Returns the measured pIC50 for the input compound. Input: Oc1cc(-c2cccc(Cn3ccnc3)c2)on1 [Compound 24]
< 6.60

Returns the measured pIC50 for the input compound. Input: Oc1cc(-c2cc(F)c(Cn3ccnc3)c(Cl)c2)on1 [Compound 6]
7.30 to 7.60

Continuing:
Returns the measured pIC50 for the input compound. Input: Oc1cc(-c2ccc(Cn3ccnc3)nc2)on1 [Compound 14]
< 6.60

Returns the measured pIC50 for the input compound. Input: Oc1cc(-c2cc(F)c(Cn3ccnc3)cc2F)on1 [Compound 4]
7.30 to 7.60

Returns the measured pIC50 for the input compound. Input: Oc1cc(-c2ccc(Cn3ccnc3)cc2F)on1 [Compound 3]
7.00 to 7.30

Returns the measured pIC50 for the input compound. Input: CC(C)(c1ccc(-c2cc(O)no2)cc1)n1ccnc1 [Compound 23]
6.60 to 7.00

Returns the measured pIC50 for the input compound. Input: COc1cc(-c2cc(O)no2)ccc1Cn1ccnc1 [Compound 10]
7.00 to 7.30
